test system: PANC1 (a human pancreatic carcinoma); experiment: IC50 activity in PANC1 cells; assay type: cell-based; conditions: PANC1 cells; read-out: IC50 PANC 1
Hi there, I'd appreciate the recorded IC50 for every entry that follows.
Give bare numbers, in µM.

See these solved cases before continuing.
* COc1ccc(C(=O)CC2(O)C(=O)Nc3c(Cl)ccc(Cl)c32)cc1 (racemic) | 34
* COc1ccc(C(=O)/C=C2\C(=O)Nc3c(Cl)ccc(Cl)c32)c(OC)c1 | 6.76

Now consider the entry below.
Data request: Give its IC50 value. Item: COc1ccc(C(=O)/C=C2\C(=O)Nc3c(Cl)ccc(Cl)c32)c(OC)c1OC
Data returned: 5.16
